Just for reference, the supplement of paper PMC10307832 is where these values come from.

relative viability values, listed per item
# Tested on: LCLC-103H
# Test Details: relative viability (nuclei count vs DMSO), 5 days (fraction); higher = more cells survive
# Condition Set: first compound 0.8 µM

Examples with their reported relative viability follow.
Identify measured relative viability corresponding to COc1nc(C)cnc1NS(=O)(=O)c1cccnc1-c1ccc(-c2nnco2)cc1 [Zibotentan] + Cc1cc(Nc2cc(N3CCN(C)CC3)nc(Sc3ccc(NC(=O)C4CC4)cc3)n2)n[nH]1 [Tozasertib] (partner 0.1 µM)
0.412

Identify measured relative viability corresponding to COc1nc(C)cnc1NS(=O)(=O)c1cccnc1-c1ccc(-c2nnco2)cc1 [Zibotentan] + Cc1nc(Nc2ncc(C(=O)Nc3c(C)cccc3Cl)s2)cc(N2CCN(CCO)CC2)n1 [Dasatinib] (partner 0.075 µM)
0.451

Identify measured relative viability corresponding to COc1nc(C)cnc1NS(=O)(=O)c1cccnc1-c1ccc(-c2nnco2)cc1 [Zibotentan] + O=C(c1cc(Cc2n[nH]c(=O)c3ccccc23)ccc1F)N1CCN(C(=O)C2CC2)CC1 [Olaparib] (partner 8 µM)
0.696

Identify measured relative viability corresponding to O=c1cc(-c2cccc3c2Sc2ccccc2S3)oc(N2CCOCC2)c1 + C[C@@H](Oc1cc(-c2cnn(C3CCNCC3)c2)cnc1N)c1c(Cl)ccc(F)c1Cl [Crizotinib] (partner 1 µM)
1.06

Pending molecule:
Identify measured relative viability corresponding to COc1nc(C)cnc1NS(=O)(=O)c1cccnc1-c1ccc(-c2nnco2)cc1 [Zibotentan] + CC(=O)c1c(C)c2cnc(Nc3ccc(N4CCNCC4)cn3)nc2n(C2CCCC2)c1=O [Palbociclib] (partner 0.5 µM)
0.449

====

relative viability values, listed per item
# Test system: NCI-H838
# Test Details: relative viability (nuclei count vs DMSO), 5 days (fraction); higher = more cells survive
# Condition Set: first compound 0.6325 µM
# print the numeric value only

# return relative viability of COCC1(CO)C(=O)C2CCN1CC2 (stereo unspecified) [PRIMA-1MET] + C[C@@H](Oc1cc(-c2cnn(C3CCNCC3)c2)cnc1N)c1c(Cl)ccc(F)c1Cl [Crizotinib] (partner 1 µM) (system: NCI-H838)
0.755

# return relative viability of COCC1(CO)C(=O)C2CCN1CC2 (stereo unspecified) [PRIMA-1MET] + O=C(c1cc(Cc2n[nH]c(=O)c3ccccc23)ccc1F)N1CCN(C(=O)C2CC2)CC1 [Olaparib] (partner 8 µM) (system: NCI-H838)
0.76

# return relative viability of COCC1(CO)C(=O)C2CCN1CC2 (stereo unspecified) [PRIMA-1MET] + CS(=O)(=O)N1CCN(Cc2cc3nc(-c4cccc5[nH]ncc45)nc(N4CCOCC4)c3s2)CC1 [Pictilisib] (partner 1 µM) (system: NCI-H838)
0.448

# return relative viability of COCC1(CO)C(=O)C2CCN1CC2 (stereo unspecified) [PRIMA-1MET] + COc1cc2c(Oc3ccc(NC(=O)C4(C(=O)Nc5ccc(F)cc5)CC4)cc3F)ccnc2cc1OCCCN1CCOCC1 [Foretinib] (partner 0.25 µM) (system: NCI-H838)
0.822

# return relative viability of COCC1(CO)C(=O)C2CCN1CC2 (stereo unspecified) [PRIMA-1MET] + CC(=O)c1c(C)c2cnc(Nc3ccc(N4CCNCC4)cn3)nc2n(C2CCCC2)c1=O [Palbociclib] (partner 0.5 µM) (system: NCI-H838)
0.188

# return relative viability of COCC1(CO)C(=O)C2CCN1CC2 (stereo unspecified) [PRIMA-1MET] + NC(=O)Nc1cc(-c2cccc(F)c2)sc1C(=O)N[C@H]1CCCNC1 [AZD7762] (partner 0.2 µM) (system: NCI-H838)
0.88

====

relative viability values, listed per item
# Tested on: NCI-H2087
# Test Details: relative viability (nuclei count vs DMSO), 5 days (fraction); higher = more cells survive
# Condition Set: first compound 0.8 µM

Examples with their reported relative viability follow.
Identify measured relative viability corresponding to O=c1cc(-c2cccc3c2Sc2ccccc2S3)oc(N2CCOCC2)c1 + CCNC(=O)c1noc(-c2cc(C(C)C)c(O)cc2O)c1-c1ccc(CN2CCOCC2)cc1 [Luminespib] (partner 0.01 µM)
0.155

Identify measured relative viability corresponding to O=c1cc(-c2cccc3c2Sc2ccccc2S3)oc(N2CCOCC2)c1 + CC1(C)CCC(c2ccc(Cl)cc2)=C(CN2CCN(c3ccc(C(=O)NS(=O)(=O)c4ccc(N[C@H](CCN5CCOCC5)CSc5ccccc5)c(S(=O)(=O)C(F)(F)F)c4)cc3)CC2)C1 [Navitoclax] (partner 0.5 µM)
1.07

Pending molecule:
Identify measured relative viability corresponding to O=c1cc(-c2cccc3c2Sc2ccccc2S3)oc(N2CCOCC2)c1 + CS(=O)(=O)N1CCN(Cc2cc3nc(-c4cccc5[nH]ncc45)nc(N4CCOCC4)c3s2)CC1 [Pictilisib] (partner 1 µM)
0.931

====

# Tested on: ChaGo-K-1
# Test Details: relative viability (nuclei count vs DMSO), 5 days (fraction); higher = more cells survive
# Condition Set: first compound 2.53 µM
relative viability values, listed per item
# print the numeric value only

Examples with their reported relative viability follow.
Identify measured relative viability corresponding to O=c1cc(-c2cccc3c2Sc2ccccc2S3)oc(N2CCOCC2)c1 + COc1cc2c(Oc3ccc(NC(=O)C4(C(=O)Nc5ccc(F)cc5)CC4)cc3F)ccnc2cc1OCCCN1CCOCC1 [Foretinib] (partner 0.25 µM)
0.88

Identify measured relative viability corresponding to COc1nc(C)cnc1NS(=O)(=O)c1cccnc1-c1ccc(-c2nnco2)cc1 [Zibotentan] + CCNC(=O)c1noc(-c2cc(C(C)C)c(O)cc2O)c1-c1ccc(CN2CCOCC2)cc1 [Luminespib] (partner 0.01 µM)
0.503

Identify measured relative viability corresponding to O=c1cc(-c2cccc3c2Sc2ccccc2S3)oc(N2CCOCC2)c1 + COc1cccc2cc(-c3nc([C@H]4CC[C@H](C(=O)O)CC4)n4ncnc(N)c34)[nH]c12 [OSI-027] (partner 0.5 µM)
0.385

Identify measured relative viability corresponding to COc1nc(C)cnc1NS(=O)(=O)c1cccnc1-c1ccc(-c2nnco2)cc1 [Zibotentan] + CC(C)C[C@H](NC(=O)[C@H](Cc1ccccc1)NC(=O)c1cnccn1)B(O)O [Bortezomib] (partner 0.002 µM)
0.99

Continuing:
Identify measured relative viability corresponding to O=c1cc(-c2cccc3c2Sc2ccccc2S3)oc(N2CCOCC2)c1 + CCNC(=O)c1noc(-c2cc(C(C)C)c(O)cc2O)c1-c1ccc(CN2CCOCC2)cc1 [Luminespib] (partner 0.01 µM)
0.67

====

# System: LCLC-103H
# Test Details: relative viability (nuclei count vs DMSO), 5 days (fraction); higher = more cells survive
# Condition Set: first compound 1 µM
relative viability values, listed per item

# return relative viability of O=c1cc(N2CCOCC2)oc2c(-c3cccc4c3sc3ccccc34)cccc12 + Nc1nc2[nH]cc(CCc3ccc(C(=O)N[C@@H](CCC(=O)O)C(=O)O)cc3)c2c(=O)[nH]1 [Pemetrexed] (partner 0.2 µM) (system: LCLC-103H)
0.457

# return relative viability of O=c1cc(N2CCOCC2)oc2c(-c3cccc4c3sc3ccccc34)cccc12 + Cc1nc(Nc2ncc(C(=O)Nc3c(C)cccc3Cl)s2)cc(N2CCN(CCO)CC2)n1 [Dasatinib] (partner 0.075 µM) (system: LCLC-103H)
0.401

Pending molecule:
# return relative viability of O=c1cc(N2CCOCC2)oc2c(-c3cccc4c3sc3ccccc34)cccc12 + O=C(c1cc(Cc2n[nH]c(=O)c3ccccc23)ccc1F)N1CCN(C(=O)C2CC2)CC1 [Olaparib] (partner 8 µM) (system: LCLC-103H)
0.749

====

# Test system: NCI-H727
# Test Details: relative viability (nuclei count vs DMSO), 5 days (fraction); higher = more cells survive
# Condition Set: first compound 0.2 µM
Each record is given yes if its reported relative viability is strictly below 0.6. Records at or above 0.6 are given no.

I'd appreciate it if you could check whether COCC1(CO)C(=O)C2CCN1CC2 (stereo unspecified) [PRIMA-1MET] + COc1cc2c(Oc3ccc(NC(=O)C4(C(=O)Nc5ccc(F)cc5)CC4)cc3F)ccnc2cc1OCCCN1CCOCC1 [Foretinib] (partner 0.25 µM) has relative viability smaller than 0.6.
no

====

relative viability values, listed per item
# System: HARA
# Test Details: relative viability (nuclei count vs DMSO), 5 days (fraction); higher = more cells survive
# Condition Set: first compound 0.8 µM
# print the numeric value only

Identify measured relative viability corresponding to COc1nc(C)cnc1NS(=O)(=O)c1cccnc1-c1ccc(-c2nnco2)cc1 [Zibotentan] + CC1(C)CCC(c2ccc(Cl)cc2)=C(CN2CCN(c3ccc(C(=O)NS(=O)(=O)c4ccc(N[C@H](CCN5CCOCC5)CSc5ccccc5)c(S(=O)(=O)C(F)(F)F)c4)cc3)CC2)C1 [Navitoclax] (partner 0.5 µM)
1.11

Identify measured relative viability corresponding to COc1nc(C)cnc1NS(=O)(=O)c1cccnc1-c1ccc(-c2nnco2)cc1 [Zibotentan] + C[C@@H](Oc1cc(-c2cnn(C3CCNCC3)c2)cnc1N)c1c(Cl)ccc(F)c1Cl [Crizotinib] (partner 1 µM)
1.02

Identify measured relative viability corresponding to O=c1cc(-c2cccc3c2Sc2ccccc2S3)oc(N2CCOCC2)c1 + Nc1ncn([C@H]2C[C@H](O)[C@@H](CO)O2)c(=O)n1 [Decitabine] (partner 2 µM)
0.483

Identify measured relative viability corresponding to COc1nc(C)cnc1NS(=O)(=O)c1cccnc1-c1ccc(-c2nnco2)cc1 [Zibotentan] + N=C(N)NC(=N)NCCc1ccccc1 [Phenformin] (partner 250 µM)
0.217

Identify measured relative viability corresponding to COc1nc(C)cnc1NS(=O)(=O)c1cccnc1-c1ccc(-c2nnco2)cc1 [Zibotentan] + COc1cc2c(Oc3ccc(NC(=O)C4(C(=O)Nc5ccc(F)cc5)CC4)cc3F)ccnc2cc1OCCCN1CCOCC1 [Foretinib] (partner 0.25 µM)
0.883

Identify measured relative viability corresponding to COc1nc(C)cnc1NS(=O)(=O)c1cccnc1-c1ccc(-c2nnco2)cc1 [Zibotentan] + CS(=O)(=O)CCNCc1ccc(-c2ccc3ncnc(Nc4ccc(OCc5cccc(F)c5)c(Cl)c4)c3c2)o1 [Lapatinib] (partner 2 µM)
0.742

Identify measured relative viability corresponding to O=c1cc(-c2cccc3c2Sc2ccccc2S3)oc(N2CCOCC2)c1 + COc1cc2c(Oc3ccc(NC(=O)C4(C(=O)Nc5ccc(F)cc5)CC4)cc3F)ccnc2cc1OCCCN1CCOCC1 [Foretinib] (partner 0.25 µM)
0.961

Identify measured relative viability corresponding to COc1nc(C)cnc1NS(=O)(=O)c1cccnc1-c1ccc(-c2nnco2)cc1 [Zibotentan] + Cc1nc(NC(=O)N2CCC[C@H]2C(N)=O)sc1-c1ccnc(C(C)(C)C(F)(F)F)c1 [Alpelisib] (partner 2 µM)
0.686

Continuing:
Identify measured relative viability corresponding to O=c1cc(-c2cccc3c2Sc2ccccc2S3)oc(N2CCOCC2)c1 + CCNC(=O)c1noc(-c2cc(C(C)C)c(O)cc2O)c1-c1ccc(CN2CCOCC2)cc1 [Luminespib] (partner 0.01 µM)
0.822

Identify measured relative viability corresponding to COc1nc(C)cnc1NS(=O)(=O)c1cccnc1-c1ccc(-c2nnco2)cc1 [Zibotentan] + CC(C)C[C@H](NC(=O)[C@H](Cc1ccccc1)NC(=O)c1cnccn1)B(O)O [Bortezomib] (partner 0.002 µM)
1.15

Identify measured relative viability corresponding to O=c1cc(-c2cccc3c2Sc2ccccc2S3)oc(N2CCOCC2)c1 + COc1cccc2cc(-c3nc([C@H]4CC[C@H](C(=O)O)CC4)n4ncnc(N)c34)[nH]c12 [OSI-027] (partner 0.5 µM)
0.566
